# Test system: NCI-H522 lung
# Assay name: NCI tumour cell line growth inhibition, 48 h
Kindly state log10 TGI for each of the entries shown.
Log scale reminder: TGI in µM, then log10 taken.

Quick request: log10 TGI for each listed item, please.
1. COc1cc(S(=O)(=O)Nc2ccc(-c3csc(N4C(=O)CSC4c4ccccc4O)n3)cc2)ccc1Cl (stereo not given)
2. CC(=O)c1c(C)c2cnc(Nc3ccc(N4CCNCC4)cn3)nc2n(C2CCCC2)c1=O
3. O=C1/C(=C/c2ccc(C(F)(F)F)cc2)COc2ccc(O)c(O)c21

[1.75, 1.44, -0.29]

Quick request: log10 TGI for each listed item, please.
1. CCOC(=O)/C=C1/SC(=Nc2ccc(C#N)cc2)N(Cc2ccco2)C1=O
2. CC/C=C\C[C@H]1C/C=C2/C(=O)C(Cl)=C[C@@H]2C/C=C\CCCC(=O)O1
3. CC1OC(O[C@@H]2C=C3CC[C@@H]4[C@H](CC[C@]5(C)[C@@H](c6ccc(=O)oc6)CC[C@]45O)[C@@]3(C)CC2)C(O)C(OC2OC(CO)C(O)C(O)C2O)C1O (stereo not given in full)
4. CCC(c1ccccc1)c1cc(C(C)(C)C)cc(C(C)(C)C)c1O (stereo not given)

0.61
-0.25
-3.37
1.43
